- condition_set: in 1,2-dichloroethane, 333.15 K
reported_endpoint: solubility (mole fraction)
The answer should be a number; do not append a unit.

Per the records, this compound ( Nc1c([N+](=O)[O-])c2no[n+]([O-])c2c2no[n+]([O-])c12 ) has solubility (mole fraction) equal to 0.000142

====

- condition_set: in propionic acid, 298.15 K
reported_endpoint: solubility (mole fraction)
The answer should be a number; do not append a unit.

Per the records, this compound ( Nc1c([N+](=O)[O-])c2no[n+]([O-])c2c2no[n+]([O-])c12 ) has solubility (mole fraction) equal to 3.15e-05

====

- condition_set: in o-xylene, 328.15 K
reported_endpoint: solubility (mole fraction)
The answer should be a number; do not append a unit.

Per the records, this compound ( Nc1c([N+](=O)[O-])c2no[n+]([O-])c2c2no[n+]([O-])c12 ) has solubility (mole fraction) equal to 0.000169
